System: MS2 coat protein
EXPERIMENTAL PROTOCOL: apparent Kd, MS2 coat protein; higher = weaker binding; RNA-MaP array; theophylline 2 mM where present
SETUP CONDITIONS: designed as: OFF switch for theophylline; no ligand
As shown below, each of these sequences has a reported apparent Kd value.
Lab book: enter the figure in nM, no units written.

Consider the reported apparent Kd for these sequences:
ACAUGAGGAUCACCCAUGUAAGGUCUUGAUACCAGACGAGAAGUAGUCCCUUGGCAGCAAAUACGUGAGGGUCACACAUGUGUAA	23
GAUGAUAUUGCAGAUACCAGACACAUGAGGAUCACCCAUGUCGCUGAGUUGCUGGAUCGUGUCCCUUGGCAGCUGCGAUAUCAUC	19.5
AUGCACCUCGUCCAGGCAAUCUUUAGUGAUACCAGCUAACUCCUUGGCCCUUGGCAGCACAUGAGGAUCACCCAUGUGCGACAUC	11.9
ACGUCCCGUUUACUCGUGGGUUAGGUCGAUACCAGUAUUCAAACUUACCCUUGGCAGCGACAUGAGGAUCACCCAUGUGCGAAGA	17.6

Kindly review the next sequence as well.
So what apparent Kd did `CAAACAUGAGGAUCACCCAUGUAAUCAGAUACCAGUGACGAAAGUCACCCUUGGCAGCUGAGUACAUAUUGGCAGAGGUGUUUGA` get with MS2 coat protein?
67

----------
Tested on: MS2 coat protein
EXPERIMENTAL PROTOCOL: apparent Kd, MS2 coat protein; higher = weaker binding; RNA-MaP array; tryptophan 2.4 mM where present
SETUP CONDITIONS: ligand present: tryptophan; designed as: OFF switch for tryptophan
OBSERVATION TYPE: apparent Kd
Put your answer as a value accompanied by its unit after it.

Illustrative cases are given below, each with its answer.
UGCAUGAGGAUCGCCCGUGUCGAGCCGGUGCGAGGACCGGUACGGCCGCCACUCGAGACAUGAGGAUCACCCAUGUUGUGCGUGA	91.4 nM
CGACACAUGAGGAUCACCCAUGUAAUGACGCGAGGACCGGUACGGCCGCCACUCGCAUGCCAAUGAGCGCAUGCGGCCUGGGUAU	14.5 nM

// lookup apparent Kd | system=MS2 coat protein | key= `AAACAUGAGGAUCACCCAUGUAUACUUAGACGAGGACCGGUACGGCCGCCACUCGAACUUCAAGAUUUGGCGGAAAAUGUAUGUA`
12.9 nM

Form field: apparent Kd recorded for `GUCCUAAGGUCGGCCGCCACUGUAGAGUGUGAGCCAUCACAUGAGGAUCACCCAUGUUGUUGCUAUAGGACCGGGAUUGUAGGAC` with MS2 coat protein (enter value)
16.4 nM

Value wanted: apparent Kd (MS2 coat protein) of entry `AGUUUAGACACGGCCGCCACUCGUGACAGAUUUAGCAGUGGUCAACAUGAGGAUCACCCAUGUCUGAGGACCGGGUGUUGAGUUU`
631 nM

Lab request: please report apparent Kd under test system MS2 coat protein for `AGAUUCGACACGGCCGCCACUUGUGGUGGAUUAUCCAGUGUCGAACAUGAGGAUCACCCAUGUACAAGGACCGGGUGUUGAGUCU`
282 nM

Fill in the recorded apparent Kd for this sequence, with MS2 coat protein as test system: `UUAUAAGUACCGGUCCUCAGAUCCUCAUGACGAGGACCGGUACGGCCGCCACUCGAAACAUGAGGAUCACCCAUGUAAUAAUACC`
29.1 nM

MS2 coat protein / apparent Kd / `UAUAUAUAUCACUAACUGUUCUUGAGGUCUCGAGGACCGGUACGGCCGCCACUCGUGCCGCCUCACAUGAGGAUCACCCAUGUCC` : value?
57 nM

# get_value(readout= apparent Kd, system= MS2 coat protein) for `UGAUACCAGUCGGCCGCCACUAUGCUAGAUACUAGCAAUAAAGGGCGACAUGAGGAUCACCCAUGUAGGACCGGGACUGGUAUCU`
14.8 nM

----------
System: MS2 coat protein
EXPERIMENTAL PROTOCOL: apparent Kd, MS2 coat protein; higher = weaker binding; RNA-MaP array; theophylline 2 mM where present
SETUP CONDITIONS: designed as: ON switch for theophylline; no ligand
In this section, each of the sequences is paired with its reported apparent Kd.
# output: bare number, implied unit nM

AUACCUAAUGUUACGUUUUCCUUUUCAGAUACCAGACUUUACGUUGUCCCUUGGCAGCUGUAUUACAUGAGGAUCACCCAUGUUG	22
AAUAACAUGAGGAUCACCCAUGUAAAAGAUACCAGAGUGAUGAUCCUCCCUUGGCAGCUUAACGCUGAUUGAUUACAAUCAGCGA	57.6
UUUUAACAUGAGGAUCACCCAUGUAAUGAUACCAGAGACGAAAGUCUCCCUUGGCAGCAUAAUCAUUACAUGAGAUGGAAACAUC	30.6

Find the recorded apparent Kd belonging to `GGUGGCUGGACUGAUACCAGCCACCACCGAUAGACCACAUGAGGAUCACCCAUGUUGGGUGGCCCUUGGCAGCAGUCUAGCUGCC` and report it.
561

For the sequence shown here, `AGAUUACAUGUUUUAAUAAGAUAAACUGAUACCAGUGUAUAUAUUCACCCUUGGCAGCAGCAACAUGAGGAUCACCCAUGUAUUA` , give the reported apparent Kd.
16

Requested field: apparent Kd. Item: `AUAACAUGAGGAUCACCCAUGUUGAGUGAUACCAGACUAUGUAAUGUCCCUUGGCAGCACAAGUAAAGUUAUAAAUAAUGAUAGA`
57.2

For the sequence shown here, `GCAAUAACGAUUGAUACCAGCAUGUUAACAUGAGGAUCACCCAUGUUAAGGAUAACAUAAUGCCCUUGGCAGCAACGGAAAGCCG` , give the reported apparent Kd.
24.3

Query: apparent Kd; subject: `GAUAGUUGAAGGGAUACCAGCCUGGACAUGAGGAUCACCCAUGUAGCAUGUUUGAAACUGGGCCCUUGGCAGCCCAUAUUGUGUA`
22.4

Give its apparent Kd value. Item: `UCGUGUAUAACGGAUACCAGUGAGAAGGAUACAUGAGGAUCACCCAUGUGAGUUGAUGUACACCCUUGGCAGCUGUAUAUAUCUA`
75.5

Field request: apparent Kd | item: `AGUGUUAUAACUGAUACCAGACCUUUGCUUAUACAUGAGGAUCACCCAUGUAAAAUGGCGGUCCCUUGGCAGCAGAGAAUACACA`
33.5

Form field: reported apparent Kd of `AGUACUCGAACGGAUACCAGCCGGACAUGAGGAUCACCCAUGUCCUACCAUGGUUCGGUUGGCCCUUGGCAGCCGUUCGUGUACA`
225

# get_value(readout='apparent Kd', item= `AGGCAGUAGGUGAUCCACUGCCAAGGUGAUACCAGCAUCGAAAGAUGCCCUUGGCAGCACCAACAUGAGGAUCACCCAUGUAAUA` )
108

Give its apparent Kd value. Item: `AAUAACAUGAGGAUCACCCAUGUAAAAGAUACCAGAGUGAUGAUCCUCCCUUGGCAGCUUAAUAACGCUAUUGGAAACAAUAGCG`
78.2

Could you tell me which apparent Kd is on file for `AUCGUACCUGGUGAUACCAGCAAUUGCUCGUGACAUGAGGAUCACCCAUGUGGCCAGUGAUGCCCUUGGCAGCAUGGUCGGUGCA` ?
164

----------
System: MS2 coat protein
EXPERIMENTAL PROTOCOL: apparent Kd, MS2 coat protein; higher = weaker binding; RNA-MaP array; tryptophan 2.4 mM where present
SETUP CONDITIONS: designed as: OFF switch for tryptophan; no ligand
OBSERVATION TYPE: apparent Kd (nM)
Give just the numeric value; nM need not be written.

Consider the worked cases shown below.
AAUACCGGUCCUCGAAGGUGAUCCUCAUAACGAGGACCGGUACGGCCGCCACUCGAUAACAUGAGGAUCACCCAUGUAAUAAUAA	187
AAACAUGAGGAUCACCCAUGUAUACUUAGACGAGGACCGGUACGGCCGCCACUCGAACUUCAAGAUUUGGCGGAAAAUGUAUGUA	11.3
CUCAUCCACGCGGCCGCCACUAUAUUGUGGUGUGAAUGUGUCGUAAUACAUGAGGAUCACCCAUGUAGGACCGGGCGUGGAUGAG	20.1

Okay, now this sequence:
Can you share its apparent Kd? I mean this sequence: `UAUAUAUAUCACUAACUGUUCUUGAGGUCUCGAGGACCGGUACGGCCGCCACUCGUGCCGCCUCACAUGAGGAUCACCCAUGUCC`
53.7

----------
Tested on: MS2 coat protein
EXPERIMENTAL PROTOCOL: apparent Kd, MS2 coat protein; higher = weaker binding; RNA-MaP array; FMN 200 µM where present
SETUP CONDITIONS: designed as: ON switch for flavin mononucleotide; no ligand
Overview of reported apparent Kd across a group of sequences:
Quick note: give the figure in nM, leave out the unit.

Solved entries:
GGAGAGUUCACAGGAUAUCAUGGGUAGUUAUUUUGAGAAGGGUGAACAAGGAACAUGAGGAUCACCCAUGUAUCCUGGGAGGGC	24.4
CGCUAAGAUGGGUCUAAUGGACCAUAGGAUAUGCUUGUACAUGAGGAUCACCCAUGUAAUAUUGUGCAGAAGGGUGGAUUUGCG	26.4
UGGUACUAGGGAGGAUAUGGGAAGAUACAUGAGGAUCACCCAUGUUUAAGAAUGCCGAGAGGCAACUAGAAGGCGCUAGUACCU	710
GUAGCUAUCGGAGGAUAUUCAUAGCGGAAACGGACAUGAGGAUCACCCAUGUGGCUAAAGCCUUGGGAGAAGGCCGAUAGCUAC	25.8
UGGUACUAGGGAGGAUAUGGGAAGAUACAUGAGGAUCACCCAUGUUUAAGAAUGCCGCGAGGCAACUAGAAGGCCCUAGUACCU	398
CCACGAGACUAAGGAUAUGGAGUGUCAACAUAAAACAUGAGGAUCACCCAUGUAAAGAGUACAAUUCAGAAGGUAGAGACGUGG	21.9
GUCAUCGCAUGAGGAUAUGGCACCGUUUCGGUGCCAGAAGGCAUGUCAAAUGACAUGAGGAUCACCCAUGUAGUUAAGAUGGCA	229
CGCUGUCACGCAGGAUAUGCAUUGGAUUACAAUGCAGAAGGGCGAUUACAUGAGGAUCACCCAUGUGUAGACAGUGAAGAAGAG	300

Tell me the measured apparent Kd of `UUUGCAUUCCGAGGAUAUUCAUAUAAUAAAUACACAUGAGGAUCACCCAUGUGGCGAUAGCCUAGGGAGAAGGCGGUUUGCUUU` , please.
22.3
